Test system: SR
Assay: NCI tumour cell line growth inhibition, 48 h
Activity calls are given as the source filed them. No stated cut-off is given here; in the data, active = GI50 up to about 1.1 µM and inactive = higher.
property: GI50

Study these solved cases before continuing.
C=C1C(=O)OC2/C=C(\C)C3OC3/C=C(/C(=O)OC)C(O)C(OC(=O)C3(C)OC3C)C12 (stereo not given)    0.566 µM (active)
CN(C)C(=C1c2cc([N+](=O)[O-])ccc2-c2ccc([N+](=O)[O-])cc21)N(C)C    2.37 µM (inactive)
COCOc1c(C(OCOC)c2cnc(Sc3ccccc3)n2C)ccc(OC)c1OC (stereo not given)    52.5 µM (inactive)
COC(=O)NC(=O)c1cn(C2OC(CO)C(O)C2O)c(=O)[nH]c1=O (stereo not given)    > 100 µM (inactive)

Prompt: Missing value: GI50, SR, entry OC1(c2ccccc2)OC(C#Cc2ccccc2)(c2ccccc2)c2ccccc21 (stereo not given) . Fill in?
Completion: 2.5 µM (inactive)

Prompt: Missing value: GI50, SR, entry O=C1c2ccc3ccccc3c2CCC1N1CCCCC1 (stereo not given) . Fill in?
Completion: 15.1 µM (inactive)

Prompt: Missing value: GI50, SR, entry CCOC(=O)c1cc2c(OCc3ccccc3)c(OC)cc3c2c(n1)N(c1ccc(OC)cc1)C(C)C3 (stereo not given) . Fill in?
Completion: > 50 µM (inactive)

Prompt: Missing value: GI50, SR, entry CC1(C)C(=O)N=C(N)N1C(=O)OCc1ccccc1 . Fill in?
Completion: > 100 µM (inactive)

Prompt: Missing value: GI50, SR, entry C=C(Br)C(Cl)(CBr)CCC(Br)C(C)(C)Cl (stereo not given) . Fill in?
Completion: > 10 µM (inactive)

Prompt: Missing value: GI50, SR, entry COc1ccccc1NC(=O)C1=C(C)NC(C)=C(C(=O)Nc2ccccc2OC)C1/C=C/c1ccccc1 . Fill in?
Completion: 51.8 µM (inactive)

Prompt: Missing value: GI50, SR, entry CSc1ccc(/C=C2/C[N+](C)(C)C/C(=C/c3ccc(SC)cc3)C2=O)cc1 . Fill in?
Completion: 8.57 µM (inactive)

Prompt: Missing value: GI50, SR, entry O=C(CC1C(=O)Nc2ccccc2[S+]1[O-])Nc1ccc(Cl)cc1 (stereo not given) . Fill in?
Completion: 32.4 µM (inactive)

Prompt: Missing value: GI50, SR, entry CC1(C)C(c2ccccc2)=[N+]([O-])C(C)(C)N1O . Fill in?
Completion: > 10 µM (inactive)

Prompt: Missing value: GI50, SR, entry N=C1C=CC(=C(c2ccc(N)cc2)c2ccc(N)cc2)C=C1 . Fill in?
Completion: 11.1 µM (inactive)

Prompt: Missing value: GI50, SR, entry C=CCc1ccccc1C1CC2(C(=O)OC)OC1C(C(=O)OC)=C2C(=O)OC (stereo not given) . Fill in?
Completion: > 10 µM (inactive)

Prompt: Missing value: GI50, SR, entry CC(=O)O[C@@H]1[C@@H](C)[C@]2(CC(c3ccoc3)OC2O)C2CCC3O[C@]3(C)[C@]2(C)[C@@H]1OC(C)=O (stereo not given in full) . Fill in?
Completion: 23.4 µM (inactive)

Prompt: Missing value: GI50, SR, entry COc1cccc2c1C(=O)c1c(O)c3c(c(O)c1C2=O)C[C@@](O)(C(C)=O)C[C@@H]3OC1CC(O)C(O)C(C)O1 (stereo not given in full) . Fill in?
Completion: 0.00935 µM (active)

Prompt: Missing value: GI50, SR, entry COC(=O)[C@H]1C=C[C@H](OC2OC(COC(C)=O)C(OC(C)=O)C(OC(C)=O)C2OC(C)=O)n2c(=O)n(-c3ccccc3)c(=O)n21 (stereo not given in full) . Fill in?
Completion: 2.03 µM (inactive)

Prompt: Missing value: GI50, SR, entry COc1ccc(-c2c3ccccc3c(-c3ccc(OCCBr)cc3)c3ccccc23)cc1 . Fill in?
Completion: > 100 µM (inactive)

Prompt: Missing value: GI50, SR, entry CNC(=O)c1nn[nH]c1O . Fill in?
Completion: > 100 µM (inactive)

Values were extracted from ChEMBL document CHEMBL1201862.
